src = PubChem BioAssay AID772

protocol-description: HT29 colon tumor cell growth inhibition, primary screen, imaging, high content imaging, 72 h, CellTiter-Glo (AID 772)
applied-conditions: HCS imaging cell count, at 10 µM, stronger effect = higher value
In all, about 3,300 compounds went through this assay and about 20 (0.6%) were called active. What follows is part of a selection rich in actives, with near analogues and random picks from the rest.
Give growth inhibition for every item shown.
# value in %; strip the unit string

Request the reported growth inhibition associated with CC1(C(=O)CSc2n[nH]c(-c3ccccc3Cl)n2)CCC(=O)O1 (stereo unspecified)
-77.2

Would you kindly share the measured growth inhibition for O=C1C(=O)N(CCN2CCOCC2)C(c2ccccn2)/C1=C(/O)c1ccc(F)cc1 (stereo unspecified) ?
-59.2

Can you share its growth inhibition? I mean this molecule: CCN(CC)Cc1cc(C(C)=O)ccc1OCC(C)C
-17.7

For C=CCc1cccc(CNc2nc3ccccc3n2C(C)C)c1O , what is its reported growth inhibition?
95.1

Please look up its growth inhibition: CCN(CC)c1ccc2cc(C(=O)Nc3ccccn3)c(=O)oc2c1
12.7

Name the reported growth inhibition value associated with the molecule CC(C)(C)C1=Nn2c(nnc2-c2ccccn2)SC1
-24.5

Name the recorded growth inhibition for C=CCc1cccc(/C=N/c2ncn[nH]2)c1O .
-6.01

Can you share its growth inhibition? I mean this molecule: CCN(CC)CCCC1(CN)OCCc2ccccc21 (stereo unspecified)
-50.9

Which measured growth inhibition value corresponds to O=C(OCC#CCSc1nnc(-c2ccccc2)o1)c1cccs1 ?
38

Which growth inhibition value belongs to CCN(CC)S(=O)(=O)c1cccc2c(N(C)C)cccc12 ?
-83.5

Entry COC(=O)CC1SC(=O)NC1=O (stereo unspecified) : reported growth inhibition = ?
-1.44

growth inhibition lookup needed for CCN(CC)CCN1C(=O)C(O)=C(C(=O)c2cccs2)C1c1ccccn1 (stereo unspecified) , thanks.
-42

For the molecule shown here, Cc1ccc(SCc2nnc(N)s2)cc1 , give the reported growth inhibition.
-4.01

Any idea what its growth inhibition is? The molecule is Cc1onc(-c2ccccc2Cl)c1C(=O)N1CCN(c2nc3ccccc3s2)CC1
55.9

So what does the record say about growth inhibition for COC(=O)C1=C(C)N=C2SC(C)C(=O)N2C1c1ccc(C(=O)OC)cc1 (stereo unspecified) ?
-44.2

What does the data say about its growth inhibition? Entry: Cc1c(C(=O)O)sc(=S)n1-c1ccccc1
46.5

Which growth inhibition is reported for this molecule? C=CCOC(=O)C(C#N)c1nc2ccccc2nc1N1CCN(c2ccccc2OCC)CC1 (stereo unspecified)
-8.05

I would be grateful if you could share the reported growth inhibition for COc1ccc(Cn2c(CCCO)nc3ccccc32)cc1OC .
32.8

# get_value(readout='growth inhibition', item= CC(=O)C1=C(O)C(=O)N(c2ccc(C(=O)O)cc2)C1c1ccccc1 (stereo unspecified) )
-93.1

Which growth inhibition reading was recorded for the molecule Clc1cccc(-c2nn3c(-c4cccc(Cl)c4)nnc3s2)c1 ?
-66.5

Give its growth inhibition value. Item: CCN(CC)c1ccc2cc(-c3nnc(-c4ccncc4)o3)c(=O)oc2c1
99.1

Which growth inhibition value belongs to COc1cc2nc(N3CCN(C(=O)C4COc5ccccc5O4)CC3)nc(N)c2cc1OC (stereo unspecified) ?
96

Quick one: growth inhibition for Cc1nnc(C)n1/N=C/c1cccn1C ?
-26.9

Quick one: growth inhibition for CCOC(=O)CNS(=O)(=O)c1cc(-c2n[nH]c(=O)c3ccccc23)ccc1C ?
-38.6

// growth inhibition lookup, key: Clc1ccc2[nH]c3c(NCCCN4CCOCC4)ncnc3c2c1
88.5

For the molecule shown here, CCCCCNC(=O)C(C#N)c1nc2ccccc2nc1N1CC(C)OC(C)C1 (stereo unspecified) , give the reported growth inhibition.
31

State the recorded growth inhibition for this entry: Clc1ccc(-n2ncc3c(NCc4cccs4)ncnc32)cc1
-12.9

Would you kindly share the measured growth inhibition for CCC(=O)O[C@@H]1CC(=O)O[C@H](C)CC=CC=C[C@@H](O)[C@H](C)C[C@H](CC=O)[C@H](O[C@H]2O[C@H](C)[C@@H](O[C@H]3C[C@@](C)(O)[C@@H](OC(=O)CC)[C@H](C)O3)[C@H](N(C)C)[C@H]2O)[C@H]1OC ?
-45.9

Need growth inhibition of COc1cc2nc(N3CCN(C(=O)C4CCCO4)CC3)nc(N)c2cc1OC (stereo unspecified) , thanks.
-61.2

Form field: reported growth inhibition of Cc1cc(=O)oc(C)c1C(=O)NCC1CCCO1 (stereo unspecified)
13.8

growth inhibition lookup needed for CCCCCC1CC(CC#CCN2CCOCC2)C(=O)O1 (stereo unspecified) , thanks.
-6.01

Please look up its growth inhibition: CCOC(=O)c1ccc(N=Cc2nc(-c3ccccc3)oc2OC(C)=O)cc1
6.56

Item O=C(NC1CCCCC1)N1CCSC1=Nc1ccccc1 has what recorded growth inhibition?
54.8

Please give the measured growth inhibition for this molecule: COC(=O)c1ccccc1NC(=O)C1COc2ccccc2O1 (stereo unspecified)
16.2

What value of growth inhibition has been reported for the following molecule? c1ccc(Cc2nnc3n2CCCCC3)cc1
-43.5

Could you tell me which growth inhibition is on file for COC(=O)C(NC(=O)c1ccccc1)(Nc1nccs1)C(F)(F)F (stereo unspecified) ?
60.8

For the molecule C=CCNc1nc(C2(C)CC3(CC(C)(C)OC3=O)C(=O)O2)cs1 (stereo unspecified) , what growth inhibition is on record?
-18.2

Param item = O=C(CCC(=O)CCN1CCCCC1)CCN1CCCCC1 ; retrieve measured growth inhibition.
28.4

Endpoint output: growth inhibition of COC(=O)C1=C(C)N=C2SC(C)C(=O)N2C1/C=C/c1ccccc1OC (stereo unspecified) . Value?
-57.1

Quick one: growth inhibition for Cn1c(SCC(=O)NCc2ccccc2)nc2ccccc21 ?
59.6

GET /values?readout=growth inhibition&item= CCCSc1nc(C)c(CC(=O)O)c(=O)[nH]1
-32.6

I'd like to know its growth inhibition. The molecule in question is OCCN(CCO)c1ncnc2c1sc1nc(N3CCOCC3)c3c(c12)CCCC3
49.2

// returns reported growth inhibition for input O=C1[C@@H]2[C@H](C(=O)N1n1cnnc1)[C@H]1C=C[C@@H]2C1
-36.7

Record request: growth inhibition value, item Fc1ccc(C2C3=C(Nc4ncnn42)c2ccccc2OC3c2ccncc2)cc1 (stereo unspecified)
61.8

Which growth inhibition is reported for this molecule? CC12CCC(C(=O)NCCCN3CCOCC3)(OC1=O)C2(C)C (stereo unspecified)
-26.1

Given O=C(NCCC1=CCCCC1)c1ccc(=O)oc1 , state its recorded growth inhibition.
45.9

----------
protocol-description: HT29 colon tumor cell growth inhibition, primary screen, imaging, high content imaging, 72 h, CellTiter-Glo (AID 772)
applied-conditions: HCS imaging cell count, measured here: ATP CellTiter-Glo viability, at 10 µM, stronger effect = higher value
In all, about 3,300 compounds went through this assay and about 20 (0.6%) were called active. What follows is part of a selection rich in actives, with near analogues and random picks from the rest.
// classify(record): look up growth inhibition in ranges small value (below -20%), mid value (-20% to below 20%), large value (20% or more)

Returns: class label. Input: CN1C(=O)N(c2ccccc2)C(Nc2nncs2)C1(C)C (stereo not drawn)
small value

Lab note: which band did Cc1ccc(C2/C(=C(/O)c3cnn(-c4ccccc4)c3C)C(=O)C(=O)N2CCN2CCOCC2)o1 (stereo not drawn) land in?
mid value

Looking at N#CC1=C(C=Nc2ccccc2O)CCC1 , which class would you pick?
mid value

Input CCN(CC)CC#CCOC(=O)C(O)(c1ccccc1)C1CCCCC1 (stereo not drawn) ; output its category
large value

Classify this compound: OCCN(CCO)c1ncnc2c1sc1nc(N3CCOCC3)c3c(c12)CCCC3
large value

In plain terms, what class is CN1CCCN=C1COC(=O)C(O)(c1ccccc1)C1CCCCC1 (stereo not drawn) ?
small value

Exam item: assign N#Cc1nc(-c2cccs2)oc1NCc1ccc2c(c1)OCO2 to the correct category.
mid value

Returns: class label. Input: C=CCNc1nc(-c2ccc(O)c(C(N)=O)c2)cs1
large value

Pick a category. Item: Cc1ccc2cc(CN(C(=O)c3ccco3)c3ccccc3C)c(=O)[nH]c2c1
small value

Returns: class label. Input: COC(=O)[C@@H](N)Cc1ccc(O)cc1
mid value

// bin(item) where item = CCOC(=O)CC(=O)CSc1nc2c(cc1C#N)CCCCCC2
small value

Class? Entry: Cc1cc(C)n(Cc2ccc(C(=O)NCCC3=CCCCC3)o2)n1
mid value

Category of CC1(C)NC(=O)N(CC(O)COc2ccccc2C(=O)Nc2ccccc2)C1=O (stereo not drawn) :
small value

Given CCc1[nH]c(=O)c(C#N)c2c1CSC(C)(C)C2 , name the class its growth inhibition places it in.
mid value

Into which bin does this compound go? COCCN(CCOC)C(=O)C12CCC(C)(C(=O)C1)C2(C)C (stereo not drawn)
mid value

Input CC[N+](C)(CC)CCOC(=O)C(O)(c1ccccc1)C1CCCCC1 (stereo not drawn) ; output its category
small value

Which bin, given its growth inhibition, does COC(=O)C(NC(=O)c1ccccc1)(Nc1nccs1)C(F)(F)F (stereo not drawn) occupy?
large value

// bin(item) where item = CCOC(=O)C1=C(N)n2c(s/c(=C\c3ccco3)c2=O)=C(C(=O)OC(C)C)C1c1ccco1 (stereo not drawn)
mid value

Exercise: read the entry CCOc1ccc2nc(NC(NC(C)=O)(C(=O)OC)C(F)(F)F)sc2c1 (stereo not drawn) and state which class it falls under.
mid value

Categorize the following entry: N#Cc1nc(COc2ccc(Cl)cc2)oc1N1CCN(Cc2ccccc2)CC1
large value

Assign a category based on measured growth inhibition for COc1ccc(N2CCN(c3oc(COc4ccc(Cl)cc4)nc3C#N)CC2)cc1 and give only the class name.
large value
